system_under_test: Dihydrofolate reductase (Lactobacillus casei) (UniProt P00381)
Sequence (P00381 whole entry): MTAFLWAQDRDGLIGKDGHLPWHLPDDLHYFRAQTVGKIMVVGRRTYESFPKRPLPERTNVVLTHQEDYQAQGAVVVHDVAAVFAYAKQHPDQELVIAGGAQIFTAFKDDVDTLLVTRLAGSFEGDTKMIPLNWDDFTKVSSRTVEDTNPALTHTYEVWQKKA
assay_text: Inhibition of Lactobacillus casei DHFR at 1 X 10^-4 M relative to control
study_conditions: Lacticaseibacillus casei
value_kind: inhibition (%)

Known results for compounds:
INSERT INTO assay_data (smiles_record, reported) VALUES
  ('COC(=O)c1ccc(CN(Cc2cnc3nc(N)nc(O)c3n2)S(=O)(=O)c2ccc(C)cc2)cc1', 23),
  ('Cc1ccc(S(=O)(=O)N(Cc2ccc(C(=O)N[C@@H](CCC(=O)O)C(=O)O)cc2)Cc2cnc3nc(N)nc(O)c3n2)cc1', 32);

P. Cc1ccc(S(=O)(=O)N(Cc2ccc(C(=O)O)cc2)Cc2cnc3nc(N)nc(N)c3n2)cc1
Q. COC(=O)c1ccc(CN(CC2=Nc3c(N)nc(N)nc3NC2)S(=O)(=O)c2ccc(C)cc2)cc1
R. Cc1ccc(S(=O)(=O)N(Cc2ccc(C(=O)O)cc2)Cc2cnc3nc(N)nc(O)c3n2)cc1
Order the records so the highest inhibition appears first and the lowest last. // rank by listing labels in the order requested
R, P, Q
(R: 25%, P: 17%, Q: 0%)
